# experimental.system: T1, bovine serum albumin (bovine, UniProt P02769 25-607)
# T1 construct: also called BSA
# T1 sequence (P02769 25-607 limits assumed): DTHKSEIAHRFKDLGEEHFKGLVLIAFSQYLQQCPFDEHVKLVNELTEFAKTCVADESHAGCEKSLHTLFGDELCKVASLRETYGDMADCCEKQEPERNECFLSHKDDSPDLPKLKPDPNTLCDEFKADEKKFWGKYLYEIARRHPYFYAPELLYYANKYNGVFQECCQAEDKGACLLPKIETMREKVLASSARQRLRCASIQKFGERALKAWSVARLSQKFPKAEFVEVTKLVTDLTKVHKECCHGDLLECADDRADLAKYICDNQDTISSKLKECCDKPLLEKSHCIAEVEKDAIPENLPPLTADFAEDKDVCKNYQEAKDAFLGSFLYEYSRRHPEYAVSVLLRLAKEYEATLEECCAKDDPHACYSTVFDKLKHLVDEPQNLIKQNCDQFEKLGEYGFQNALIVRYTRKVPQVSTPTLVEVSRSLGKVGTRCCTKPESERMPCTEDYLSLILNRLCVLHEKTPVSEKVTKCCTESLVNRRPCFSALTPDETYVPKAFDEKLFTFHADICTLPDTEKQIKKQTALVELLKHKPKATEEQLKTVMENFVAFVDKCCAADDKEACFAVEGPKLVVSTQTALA
# assay.protocol: ELISA, protein coated at 10 ug/ml

binder	binding result
anti-anthrax LF10E monoclonal antibody (IgG) (antibody, V domains shown) VH: EVQLLESGGGLVKPGGSLRLTCAASGFTFSSYAMHWVRQAPEKGLEWVSSISGSGGGTWYADSVKGRFTISRDNSRNTLYLQLNSLRAEDTAVYYCARPKYTGYENPFDYWGQGTLVTVS VL: ELQMTQSPSSLSASVGDRVTITCRASQDIRNYLAWYQQEPGKAPRLLIYYASKLQSGVPSRFSGRGSGTDYSLTISSLQPEDFATYYCQQYDSVPLTFGGGTKMEIKR	no binding
anti-anthrax LF11H monoclonal antibody (IgG) (antibody, V domains shown) VH: VQLLEQSGAEVKKPGESLKISCKGSGYSFTNYWIGWVRQMPGKGLEWMGIIYPDDSDTRYSPSFQGQVTISFDKSINTAYLQWSSLKASDTAIYYCARALWFRDWGKMDVWGKGTTVTVS VL: ELQMTQSPSSLSASVGDRVTITCRASQGIRNDLGWYQQKPGKAPKLLIYAASSLQSGVPSRFSGSGSGTDFTLTISSLQPEDFATYYCLQDYTYPWTFGQGTKLEIKR	no binding
anti-EF clone EF14H (antibody, V domains shown) VH: VQLLEESGGGLVKPGGSLRLSCAASGFTFSNYSMNWVRQAPGKGLEWVGFIRTKAKGGTTEYAASVKGRFTISRDDSKSIAYLQMNSLKTEDTAVYYCTPAGIIIRLVTPIYYYYMDVWGKGTTVTVS VL: AAELTQSPSSLSASVGDRVTITCRASQGIRNYLAWYQQKPGKVPKLLIYAASTLQSGVPSRFSGSGSGTDFTLTISSLQPEDVATYYCQKYSSAPFTFGPGTKVGIKR	no binding
